target: EGFR V3 (Homo sapiens, UniProt P00533, DELINS30-297G); construct: expressed in transfected cells; host or cells: BaF3 (murine pro-B), retroviral pMXs-IRES-Blasticidin; assay: Activity for inhibiting EGFR (Table A), EGFR V3 (EGFR-Viii); assay type: cell-based; details: read-out: EGFR V3, potency code (IC50)
Sequence (P00533 with tags, fused parts or gaps DELINS30-297G): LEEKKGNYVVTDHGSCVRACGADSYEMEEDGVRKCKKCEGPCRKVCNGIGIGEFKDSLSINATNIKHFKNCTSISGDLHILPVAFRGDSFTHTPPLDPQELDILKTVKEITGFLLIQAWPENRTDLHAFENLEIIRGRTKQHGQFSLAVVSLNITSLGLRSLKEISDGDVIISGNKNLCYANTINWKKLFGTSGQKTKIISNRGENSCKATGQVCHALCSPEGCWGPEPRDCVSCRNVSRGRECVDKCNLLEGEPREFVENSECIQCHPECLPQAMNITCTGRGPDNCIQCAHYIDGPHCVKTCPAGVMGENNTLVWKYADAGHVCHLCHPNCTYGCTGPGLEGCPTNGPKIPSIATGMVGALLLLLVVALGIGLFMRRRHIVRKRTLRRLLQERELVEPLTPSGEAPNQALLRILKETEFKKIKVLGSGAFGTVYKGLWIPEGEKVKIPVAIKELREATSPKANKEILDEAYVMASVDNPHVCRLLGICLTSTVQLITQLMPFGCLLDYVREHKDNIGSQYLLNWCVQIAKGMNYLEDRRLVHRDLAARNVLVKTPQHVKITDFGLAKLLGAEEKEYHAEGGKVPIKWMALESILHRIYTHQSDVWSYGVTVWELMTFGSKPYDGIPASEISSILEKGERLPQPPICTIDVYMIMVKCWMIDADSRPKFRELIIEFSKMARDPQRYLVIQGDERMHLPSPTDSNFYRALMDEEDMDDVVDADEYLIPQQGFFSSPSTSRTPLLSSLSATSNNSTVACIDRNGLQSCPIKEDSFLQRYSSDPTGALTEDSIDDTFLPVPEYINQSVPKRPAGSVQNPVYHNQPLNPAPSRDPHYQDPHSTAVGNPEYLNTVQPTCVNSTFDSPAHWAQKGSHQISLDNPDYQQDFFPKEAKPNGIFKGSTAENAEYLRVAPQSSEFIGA
quantityName: IC50

// worked examples, IC50 included
compound | testedOn | IC50
C=CC(=O)Nc1cc2c(Nc3ccc(OCc4ccccn4)c(Cl)c3)ncnc2cc1OCC[C@H]1CCCN1C [compound 95] | EGFR V3 (Homo sapiens, UniProt P00533, DELINS30-297G) | 20 to 30 nM
CC#CC(=O)Nc1cc2c(Nc3ccc(OCc4cccnn4)c(Cl)c3)ncnc2cc1OCCCN1CCOCC1 [compound 165] | EGFR V3 (Homo sapiens, UniProt P00533, DELINS30-297G) | 30 to 50 nM
C=CC(=O)Nc1cc2c(Nc3ccc(OCc4ccccn4)c(Cl)c3)ncnc2cc1OCCN1CC2COCC2C1 (stereo not drawn) [compound 51] | EGFR V3 (Homo sapiens, UniProt P00533, DELINS30-297G) | 20 to 30 nM
C=CC(=O)Nc1cc2c(Nc3ccc(OCc4ccccn4)c(Cl)c3)ncnc2cc1OCCN1CCS(=O)(=O)CC1 [compound 125] | EGFR V3 (Homo sapiens, UniProt P00533, DELINS30-297G) | 100 to 200 nM
C=CC(=O)Nc1cc2c(Nc3ccc(OCc4ccccn4)c(Cl)c3)ncnc2cc1O[C@H]1CCCN(C)CC1 [compound 99] | EGFR V3 (Homo sapiens, UniProt P00533, DELINS30-297G) | 20 to 30 nM

Problem: Entry C=C(F)C(=O)Nc1cc2c(Nc3ccc(OCc4ccccn4)c(Cl)c3)ncnc2cc1OCCN1CCOCC1 [compound 109] , system EGFR V3 (Homo sapiens, UniProt P00533, DELINS30-297G): what IC50 was measured?
Solution: 10 to 20 nM

Problem: Entry C=CC(=O)Nc1cc2c(Nc3ccc(OCc4cccnn4)c(Cl)c3)ncnc2cc1OCCN1CCOCC1 [compound 171] , system EGFR V3 (Homo sapiens, UniProt P00533, DELINS30-297G): what IC50 was measured?
Solution: 50 to 100 nM

Problem: Entry C=CC(=O)Nc1cc2c(Nc3ccc(OCc4ccccn4)c(Cl)c3)ncnc2cc1OCCN1CC(F)C1 [compound 34] , system EGFR V3 (Homo sapiens, UniProt P00533, DELINS30-297G): what IC50 was measured?
Solution: 30 to 50 nM

Problem: Entry C=CC(=O)Nc1cc2c(Nc3ccc(Oc4ccccc4)c(Cl)c3)ncnc2cc1O[C@@H]1CCN(C)C1 [compound 91] , system EGFR V3 (Homo sapiens, UniProt P00533, DELINS30-297G): what IC50 was measured?
Solution: 50 to 100 nM

Problem: Entry C=CC(=O)Nc1cc2c(Nc3ccc(OCc4cccc(C(F)(F)F)n4)c(Cl)c3)ncnc2cc1OCCN1CCOCC1 [compound 23] , system EGFR V3 (Homo sapiens, UniProt P00533, DELINS30-297G): what IC50 was measured?
Solution: 100 to 200 nM

Problem: Entry C=CC(=O)Nc1cc2c(Nc3ccc(OCc4cccc(F)c4)c(Cl)c3)ncnc2cc1N(C)CCN(C)C [compound 1] , system EGFR V3 (Homo sapiens, UniProt P00533, DELINS30-297G): what IC50 was measured?
Solution: 100 to 200 nM
